Biological target: CYP2D6 (Homo sapiens, UniProt P10635)
Sequence (P10635 whole entry): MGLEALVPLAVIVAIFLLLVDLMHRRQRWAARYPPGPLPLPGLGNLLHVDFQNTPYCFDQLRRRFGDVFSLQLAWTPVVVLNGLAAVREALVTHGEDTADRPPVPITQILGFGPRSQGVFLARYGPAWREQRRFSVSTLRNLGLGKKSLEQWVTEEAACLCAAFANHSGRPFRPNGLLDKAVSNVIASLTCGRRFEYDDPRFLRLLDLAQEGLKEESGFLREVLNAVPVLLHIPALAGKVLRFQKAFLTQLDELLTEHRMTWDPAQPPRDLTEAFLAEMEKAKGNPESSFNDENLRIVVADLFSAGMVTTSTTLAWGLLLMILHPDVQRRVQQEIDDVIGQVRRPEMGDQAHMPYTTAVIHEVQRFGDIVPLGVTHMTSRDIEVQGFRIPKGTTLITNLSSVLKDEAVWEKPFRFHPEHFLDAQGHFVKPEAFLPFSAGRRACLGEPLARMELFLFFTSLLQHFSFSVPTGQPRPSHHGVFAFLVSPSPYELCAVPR
Test: Inhibition of CYP2D6 at 3 uM
Assay type: ADME
measured parameter: inhibition at 3 µM

// query Report its inhibition at 3 µM with CYP2D6 (Homo sapiens, UniProt P10635) as the test system: CNC[C@@H](O)[C@H](c1ccccc1)n1ccc2ccccc21
// result < 20%

###

Biological target: CYP2C9 (Homo sapiens)
Sequence (P11712 whole entry): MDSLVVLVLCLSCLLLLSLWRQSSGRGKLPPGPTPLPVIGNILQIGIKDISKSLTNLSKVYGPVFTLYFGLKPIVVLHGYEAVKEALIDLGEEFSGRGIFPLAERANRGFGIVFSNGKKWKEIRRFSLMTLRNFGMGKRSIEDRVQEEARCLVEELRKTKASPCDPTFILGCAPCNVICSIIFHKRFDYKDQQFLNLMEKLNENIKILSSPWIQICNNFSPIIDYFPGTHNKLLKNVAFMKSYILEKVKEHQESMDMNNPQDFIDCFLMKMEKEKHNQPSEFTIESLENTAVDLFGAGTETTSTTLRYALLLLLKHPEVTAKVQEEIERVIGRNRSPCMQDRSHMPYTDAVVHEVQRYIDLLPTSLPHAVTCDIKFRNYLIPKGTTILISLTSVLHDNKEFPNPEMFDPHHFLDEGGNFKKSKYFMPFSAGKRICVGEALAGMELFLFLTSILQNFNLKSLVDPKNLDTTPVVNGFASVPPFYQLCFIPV
Assay: Inhibition of CYP2C9 at 3 uM
Assay type: ADME
measured parameter: inhibition at 3 µM

// query Quickly give me recorded inhibition at 3 µM for CNC[C@@H](O)[C@H](c1ccccc1)n1ccc2ccccc21
// result < 20%

###

Target: Sodium-dependent noradrenaline transporter (Homo sapiens, UniProt P23975)
Sequence (P23975 whole entry): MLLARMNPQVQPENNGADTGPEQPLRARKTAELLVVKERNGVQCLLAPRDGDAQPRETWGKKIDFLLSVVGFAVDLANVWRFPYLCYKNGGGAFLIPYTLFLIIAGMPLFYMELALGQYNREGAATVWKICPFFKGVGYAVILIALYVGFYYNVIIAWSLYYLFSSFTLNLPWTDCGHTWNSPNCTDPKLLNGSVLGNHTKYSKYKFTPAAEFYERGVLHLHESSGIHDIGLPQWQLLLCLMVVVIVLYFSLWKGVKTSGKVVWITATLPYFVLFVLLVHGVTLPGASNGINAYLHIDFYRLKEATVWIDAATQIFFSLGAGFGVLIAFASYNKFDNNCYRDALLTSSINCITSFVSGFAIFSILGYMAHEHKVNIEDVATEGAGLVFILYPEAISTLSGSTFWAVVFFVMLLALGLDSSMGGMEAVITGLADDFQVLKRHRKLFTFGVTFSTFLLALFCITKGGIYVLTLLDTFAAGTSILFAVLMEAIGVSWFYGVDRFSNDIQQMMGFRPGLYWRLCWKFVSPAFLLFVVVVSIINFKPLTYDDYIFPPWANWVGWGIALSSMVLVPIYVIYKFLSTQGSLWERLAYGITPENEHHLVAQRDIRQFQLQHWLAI
Assay: Inhibition of norepinephrine reuptake at human NET expressed in MDCK-Net6 cells at 1000 nM
Assay type: cell-based
Label t when inhibition is at or above 20%; otherwise label f.

Here are 3 compounds together with their reported answers.
compound	assigned class
O[C@@H](CNCc1ccccc1)[C@H](c1ccccc1)n1ccc2ccccc21 (racemic)	t
CNC[C@H](O)[C@H](c1ccccc1)n1c(C)cc2ccccc21 (racemic)	t
O[C@@H](CNCc1ccncc1)[C@H](c1ccccc1)n1ccc2ccccc21 (racemic)	t

// query Reported inhibition at or above 20%? O[C@@H](CNCC1CCCCC1)[C@H](c1ccccc1)n1ccc2ccccc21 (racemic)
// result t

// query Does the reported inhibition for CN1CCN(C[C@H](O)[C@H](c2ccccc2)n2ccc3ccccc32)CC1 (racemic) fall at or above the 20% mark?
// result f

// query Hi team, for CN(C)C[C@H](O)[C@H](c1ccccc1)n1ccc2ccccc21 (racemic) , is the recorded inhibition at or above 20%?
// result t

// query Quick check: does O[C@@H](CN1CCOCC1)[C@H](c1ccccc1)n1ccc2ccccc21 (racemic) have inhibition greater than or equal to 20%?
// result f

###

Assign inhibition to each entry below.
Molecular target: Sodium-dependent dopamine transporter (Homo sapiens) (UniProt Q01959)
Sequence (Q01959 whole entry): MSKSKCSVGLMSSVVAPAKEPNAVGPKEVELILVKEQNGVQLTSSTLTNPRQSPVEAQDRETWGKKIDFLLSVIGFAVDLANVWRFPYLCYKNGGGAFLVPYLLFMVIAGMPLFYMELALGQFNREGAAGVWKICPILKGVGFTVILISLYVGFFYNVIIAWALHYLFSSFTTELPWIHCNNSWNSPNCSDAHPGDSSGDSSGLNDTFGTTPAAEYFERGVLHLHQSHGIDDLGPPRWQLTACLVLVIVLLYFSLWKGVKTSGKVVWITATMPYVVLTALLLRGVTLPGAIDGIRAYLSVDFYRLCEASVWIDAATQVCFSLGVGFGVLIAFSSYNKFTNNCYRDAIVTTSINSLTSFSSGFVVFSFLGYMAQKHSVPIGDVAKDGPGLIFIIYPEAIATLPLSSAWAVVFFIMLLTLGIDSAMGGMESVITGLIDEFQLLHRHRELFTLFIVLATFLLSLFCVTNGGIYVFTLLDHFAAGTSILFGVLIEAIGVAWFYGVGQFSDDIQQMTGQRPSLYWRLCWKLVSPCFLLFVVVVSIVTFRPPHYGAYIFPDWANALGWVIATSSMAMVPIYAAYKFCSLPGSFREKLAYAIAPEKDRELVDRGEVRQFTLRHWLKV
Assay: Displacement of [3H]WIN-35428 from human recombinant DAT expressed in CHO cells at 1 uM
Assay type: cell-based
Give bare numbers, in %.

compound	reading unit	reported
CNC[C@@H](O)[C@H](c1ccccc1)n1ccc2ccccc21	%	19

Working through the 4 compounds below one at a time, give inhibition for each.
1. CNC[C@H](O)[C@H](c1ccccc1)n1cc(C)c2ccccc21 (racemic)
2. CNC[C@@H](O)[C@H](c1ccccc1)n1ccc2ccccc21 (stereo in doubt)
3. CNC[C@@H](O)[C@@H](c1ccccc1)n1ccc2ccccc21
4. CCNC[C@H](O)[C@H](c1ccccc1)n1cc(C)c2ccccc21 (racemic)

// result
1: 0; 2: 7; 3: 31; 4: 0

###

Target: CYP3A4 (Homo sapiens)
Sequence (P08684 whole entry): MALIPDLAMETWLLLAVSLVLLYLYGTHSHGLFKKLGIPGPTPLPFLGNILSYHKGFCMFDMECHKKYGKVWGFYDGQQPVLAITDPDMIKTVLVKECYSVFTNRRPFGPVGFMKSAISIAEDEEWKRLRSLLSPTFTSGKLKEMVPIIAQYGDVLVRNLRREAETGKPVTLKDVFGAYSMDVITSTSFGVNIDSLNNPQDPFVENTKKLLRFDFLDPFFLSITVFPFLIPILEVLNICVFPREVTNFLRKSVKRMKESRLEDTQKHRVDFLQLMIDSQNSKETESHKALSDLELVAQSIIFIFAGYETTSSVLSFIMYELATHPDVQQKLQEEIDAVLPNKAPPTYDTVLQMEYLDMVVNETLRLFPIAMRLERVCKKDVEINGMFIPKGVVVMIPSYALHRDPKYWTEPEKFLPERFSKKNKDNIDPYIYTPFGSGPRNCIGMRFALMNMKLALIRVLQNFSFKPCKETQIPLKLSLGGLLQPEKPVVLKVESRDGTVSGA
Assay: Inhibition of CYP3A4 at 3 uM
Type: ADME
measured parameter: inhibition at 3 µM

// query Find the measured inhibition at 3 µM of CNC[C@@H](O)[C@H](c1ccccc1)n1ccc2ccccc21 and report it.
// result < 20%

###

Test: Half life in dog liver microsomes at 1 uM
Type: ADME, Canis lupus familiaris, Microsome
measured parameter: half-life at 1 µM (min)
Give bare numbers, in min.

// query Give a short answer stating reported half-life at 1 µM for CNC[C@@H](O)[C@H](c1ccccc1)n1ccc2ccccc21 .
// result 15.9

###

This document collects pIC50 values reported for UniProt P31645.
Sequence (P31645 whole entry): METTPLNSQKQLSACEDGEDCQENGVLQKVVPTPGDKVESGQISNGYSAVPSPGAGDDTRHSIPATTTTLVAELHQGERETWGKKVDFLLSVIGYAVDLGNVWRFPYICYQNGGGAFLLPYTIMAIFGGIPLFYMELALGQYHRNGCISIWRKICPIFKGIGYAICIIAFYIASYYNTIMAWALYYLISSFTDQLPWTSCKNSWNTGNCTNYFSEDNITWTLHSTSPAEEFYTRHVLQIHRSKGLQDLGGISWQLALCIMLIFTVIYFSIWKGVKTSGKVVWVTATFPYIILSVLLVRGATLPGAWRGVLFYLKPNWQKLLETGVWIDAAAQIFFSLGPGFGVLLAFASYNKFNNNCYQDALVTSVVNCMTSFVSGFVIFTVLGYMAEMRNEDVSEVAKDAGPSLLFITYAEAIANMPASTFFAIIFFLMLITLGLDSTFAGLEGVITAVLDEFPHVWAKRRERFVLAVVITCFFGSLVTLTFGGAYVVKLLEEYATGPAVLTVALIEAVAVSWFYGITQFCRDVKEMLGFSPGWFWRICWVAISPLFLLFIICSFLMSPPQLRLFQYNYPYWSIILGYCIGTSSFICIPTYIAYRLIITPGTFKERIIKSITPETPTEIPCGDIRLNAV
One number for each entry, as −log10 of the molar value.

Worked set:
compound	measured parameter	reported
NC[C@H](O)[C@H](c1ccccc1)n1ccc2ccccc21 (racemic)	pIC50	7.30
CNC[C@H](O)[C@H](c1ccccc1)n1ccc2ccccc21	pIC50	6.04
CNC[C@H](O)[C@@H](c1ccccc1)n1ccc2ccccc21 (stereo in doubt)	pIC50	7.13
CNC[C@H](O)[C@@H](c1ccccc1)n1ccc2ccccc21	pIC50	6.84
CNC[C@H](O)[C@H](c1ccccc1)n1ccc2cc(OC)ccc21 (racemic)	pIC50	7.51

Below are some compounds; for each one, tell me its pIC50.
1. CCNC[C@H](O)[C@H](c1ccccc1)n1ccc2ccccc21 (racemic)
2. CNC[C@@H](O)[C@H](c1ccccc1)n1ccc2ccccc21
3. CNC[C@@H](O)[C@@H](c1ccccc1)n1ccc2ccccc21

// result
6.53
6.45
6.79

Provide the reported pIC50 of each entry below, same order.
1. Cc1cn([C@@H](c2ccccc2)[C@@H](O)CN)c2ccccc12 (racemic)
2. CNC[C@H](O)[C@H](c1ccccc1)n1ccc2cc(F)ccc21 (racemic)

// result
6.52
7.02
